From: ChEMBL document CHEMBL5154863

Tested on: Escherichia coli
Experiment: Antibacterial activity against Escherichia coli ATCC 25922 assessed as inhibition of bacterial growth incubated for 20 to 24 hrs by broth micro dilution method
Format: functional
Cond: time 20-24 hrs
Observed property: MIC

{"Test smiles": "CCCCCNc1cc(/C=C/c2ccc(N(C)C)cc2)c2ccccc2[n+]1C.[I-]", "MIC": "> 64 µg/mL"}
{"Test smiles": "CN(C)c1ccc(/C=C/c2cc(NCCCO)[n+](C)c3ccccc23)cc1.[I-]", "MIC": "> 64 µg/mL"}
{"Test smiles": "CO[C@H]1/C=C/O[C@@]2(C)Oc3c(C)c(O)c4c(O)c(c(/C=N/N5CCN(C)CC5)c(O)c4c3C2=O)NC(=O)/C(C)=C\\C=C\\[C@H](C)[C@H](O)[C@@H](C)[C@@H](O)[C@@H](C)[C@H](OC(C)=O)[C@@H]1C", "MIC": "2 µg/mL"}
{"Test smiles": "CN(C)c1ccc(/C=C/c2cc(N3CCOCC3)[n+](C)c3ccccc23)cc1.[I-]", "MIC": "> 64 µg/mL"}
{"Test smiles": "CN(C)c1ccc(/C=C/c2cc(N3CCCC3)[n+](C)c3ccccc23)cc1.[I-]", "MIC": "16 µg/mL"}

Now turn to the next compound.
Query string: Which measured MIC value corresponds to CN(C)c1ccc(/C=C/c2cc(N3CCCC3)c3ccccc3[n+]2C)cc1.[I-] ?
Result string: 4 µg/mL
